Measured LD50 values are reported for all entries that follow.
# assay_method_text: Toxicity in Candida albicans ATCC 14053 infected iv dosed (C57BL/6xDBA/2)F1 B6D2F1 mouse
# Type: organism-based
# measurement_setup: in vivo
experimental_readout: LD50 (mg/kg)

1. C[C@@H]1[C@H](O)[C@@H](C)/C=C/C=C/C=C/C=C/C=C/C=C/C=C/[C@H](O[C@@H]2O[C@H](C)[C@@H](O)[C@H](N)[C@@H]2O)C[C@@H]2O[C@](O)(C[C@@H](O)C[C@@H](O)[C@H](O)CC[C@@H](O)C[C@@H](O)CC(=O)O[C@H]1C)C[C@H](O)[C@H]2C(=O)O
2.8
2. C[C@@H]1[C@H](O)[C@@H](C)/C=C/C=C/C=C/C=C/C=C/C=C/C=C/[C@H](O[C@H]2O[C@@H](C)[C@H](O)[C@@H](N)[C@H]2O)C[C@@H]2O[C@](O)(C[C@@H](O)[C@H](O)CC[C@@H](O)C[C@@H](O)C[C@@H](O)CC(=O)O[C@H]1C)C[C@H](O)[C@H]2C(=O)O
2.2
3. C[C@@H]1[C@H](O)[C@@H](C)/C=C/C=C/C=C/C=C/C=C/C=C/C=C/[C@H](O[C@H]2O[C@@H](C)[C@H](O)[C@@H](N)[C@H]2O)C[C@@H]2O[C@](O)(C[C@@H](O)[C@H](O)CC[C@@H](O)C[C@@H](O)C[C@@H](O)CC(=O)O[C@H]1C)C[C@H](O)[C@H]2C(=O)NCCCN(C)C
16.4

---

# Test system: Candida albicans
# assay_method_text: Antifungal activity against Candida albicans ATCC 10231after 48 hrs by broth microdilution method
# Assay type: functional
# measurement_setup: ATCC 10231, 48 h
Assign labels as follows, please: Yes for MIC50 below 0.09 µg/mL; No for MIC50 equal to or exceeding 0.09 µg/mL.

1. C[C@@H]1[C@H](O)[C@@H](C)/C=C/C=C/C=C/C=C/C=C/C=C/C=C/[C@H](O[C@@H]2O[C@H](C)[C@@H](O)[C@H](N)[C@@H]2O)C[C@@H]2O[C@](O)(C[C@@H](O)C[C@@H](O)[C@H](O)CC[C@@H](O)C[C@@H](O)CC(=O)O[C@H]1C)C[C@H](O)[C@H]2C(=O)O
No
2. C[C@@H]1[C@H](O)[C@@H](C)/C=C/C=C/C=C/C=C/C=C/C=C/C=C/[C@H](O[C@H]2O[C@@H](C)[C@H](O)[C@@H](N)[C@H]2O)C[C@@H]2O[C@](O)(C[C@@H](O)[C@H](O)CC[C@@H](O)C[C@@H](O)C[C@@H](O)CC(=O)O[C@H]1C)C[C@H](O)[C@H]2C(=O)N1CCN(CCO)CC1
No
3. C[C@@H]1[C@H](O)[C@@H](C)/C=C/C=C/C=C/C=C/C=C/C=C/C=C/[C@H](O[C@H]2O[C@@H](C)[C@H](O)[C@@H](N)[C@H]2O)C[C@@H]2O[C@](O)(C[C@@H](O)[C@H](O)CC[C@@H](O)C[C@@H](O)C[C@@H](O)CC(=O)O[C@H]1C)C[C@H](O)[C@H]2C(=O)O
No
4. C[C@@H]1[C@H](O)[C@@H](C)/C=C/C=C/C=C/C=C/C=C/C=C/C=C/[C@H](O[C@H]2O[C@@H](C)[C@H](O)[C@@H](N(CCCN)CCCN)[C@H]2O)C[C@@H]2O[C@](O)(C[C@@H](O)[C@H](O)CC[C@@H](O)C[C@@H](O)C[C@@H](O)CC(=O)O[C@H]1C)C[C@H](O)[C@H]2C(=O)O
Yes
5. C[C@@H]1[C@H](O)[C@@H](C)/C=C/C=C/C=C/C=C/C=C/C=C/C=C/[C@H](O[C@H]2O[C@@H](C)[C@H](O)[C@@H](N)[C@H]2O)C[C@@H]2O[C@](O)(C[C@@H](O)[C@H](O)CC[C@@H](O)C[C@@H](O)C[C@@H](O)CC(=O)O[C@H]1C)C[C@H](O)[C@H]2C(=O)NCCCN(C)C
Yes
6. CCOC(=O)CNC(=O)[C@H]1[C@@H]2C[C@@H](O[C@H]3O[C@@H](C)[C@H](O)[C@@H](N)[C@H]3O)/C=C/C=C/C=C/C=C/C=C/C=C/C=C/[C@H](C)[C@@H](O)[C@@H](C)[C@H](C)OC(=O)C[C@H](O)C[C@H](O)C[C@H](O)CC[C@@H](O)[C@H](O)C[C@](O)(C[C@@H]1O)O2
No

---

Measured MIC values are reported for all entries that follow.
# Test system: Fusarium oxysporum
# assay_method_text: Antifungal activity against Fusarium oxysporum VKM F-140 after 48 hrs by broth microdilution method
# Assay type: functional
experimental_readout: MIC (µg/mL)

1) C[C@@H]1[C@H](O)[C@@H](C)/C=C/C=C/C=C/C=C/C=C/C=C/C=C/[C@H](O[C@H]2O[C@@H](C)[C@H](O)[C@@H](N)[C@H]2O)C[C@@H]2O[C@](O)(C[C@@H](O)[C@H](O)CC[C@@H](O)C[C@@H](O)C[C@@H](O)CC(=O)O[C@H]1C)C[C@H](O)[C@H]2C(=O)NC1C2CC3CC(C2)CC1C3 (stereo not given in full)
8
2) C[C@@H]1[C@H](O)[C@@H](C)/C=C/C=C/C=C/C=C/C=C/C=C/C=C/[C@H](O[C@H]2O[C@@H](C)[C@H](O)[C@@H](N)[C@H]2O)C[C@@H]2O[C@](O)(C[C@@H](O)[C@H](O)CC[C@@H](O)C[C@@H](O)C[C@@H](O)CC(=O)O[C@H]1C)C[C@H](O)[C@H]2C(=O)N1CCN(CCO)CC1
4
3) COC(=O)[C@H](C)NC(=O)[C@H]1[C@@H]2C[C@@H](O[C@H]3O[C@@H](C)[C@H](O)[C@@H](N)[C@H]3O)/C=C/C=C/C=C/C=C/C=C/C=C/C=C/[C@H](C)[C@@H](O)[C@@H](C)[C@H](C)OC(=O)C[C@H](O)C[C@H](O)C[C@H](O)CC[C@@H](O)[C@H](O)C[C@](O)(C[C@@H]1O)O2
8
4) C[C@@H]1[C@H](O)[C@@H](C)/C=C/C=C/C=C/C=C/C=C/C=C/C=C/[C@H](O[C@H]2O[C@@H](C)[C@H](O)[C@@H](N(CCCN)CCCN)[C@H]2O)C[C@@H]2O[C@](O)(C[C@@H](O)[C@H](O)CC[C@@H](O)C[C@@H](O)C[C@@H](O)CC(=O)O[C@H]1C)C[C@H](O)[C@H]2C(=O)O
1
5) C[C@@H]1[C@H](O)[C@@H](C)/C=C/C=C/C=C/C=C/C=C/C=C/C=C/[C@H](O[C@H]2O[C@@H](C)[C@H](O)[C@@H](N)[C@H]2O)C[C@@H]2O[C@](O)(C[C@@H](O)[C@H](O)CC[C@@H](O)C[C@@H](O)C[C@@H](O)CC(=O)O[C@H]1C)C[C@H](O)[C@H]2C(=O)NCCCO
2
6) C[C@@H]1[C@H](O)[C@@H](C)/C=C/C=C/C=C/C=C/C=C/C=C/C=C/[C@H](O[C@H]2O[C@@H](C)[C@H](O)[C@@H](N)[C@H]2O)C[C@@H]2O[C@](O)(C[C@@H](O)[C@H](O)CC[C@@H](O)C[C@@H](O)C[C@@H](O)CC(=O)O[C@H]1C)C[C@H](O)[C@H]2C(=O)NCCCN(C)C
2
7) C[C@@H]1[C@H](O)[C@@H](C)/C=C/C=C/C=C/C=C/C=C/C=C/C=C/[C@H](O[C@H]2O[C@@H](C)[C@H](O)[C@@H](NC[C@]3(O)OC[C@@H](O)[C@H](O)[C@@H]3O)[C@H]2O)C[C@@H]2O[C@](O)(C[C@@H](O)[C@H](O)CC[C@@H](O)C[C@@H](O)C[C@@H](O)CC(=O)O[C@H]1C)C[C@H](O)[C@H]2C(=O)O
8
8) C[C@@H]1[C@H](O)[C@@H](C)/C=C/C=C/C=C/C=C/C=C/C=C/C=C/[C@H](O[C@H]2O[C@@H](C)[C@H](O)[C@@H](NC[C@]3(O)OC[C@@H](O)[C@@H](O)[C@@H]3O)[C@H]2O)C[C@@H]2O[C@](O)(C[C@@H](O)[C@H](O)CC[C@@H](O)C[C@@H](O)C[C@@H](O)CC(=O)O[C@H]1C)C[C@H](O)[C@H]2C(=O)O
8

---

# assay_method_text: Toxicity against human erythrocytes assessed as hemolytic activity at 5 ug/ml
# Format: cell-based, Erythrocyte
# measurement_setup: read-out: Activity
Assign labels as follows, please: class 1 for hemolysis at 5 ug/ml below 8%; class 0 for hemolysis at 5 ug/ml equal to or exceeding 8%.

1. COC(=O)[C@H](CO)NC(=O)[C@H]1[C@@H]2C[C@@H](O[C@H]3O[C@@H](C)[C@H](O)[C@@H](N)[C@H]3O)/C=C/C=C/C=C/C=C/C=C/C=C/C=C/[C@H](C)[C@@H](O)[C@@H](C)[C@H](C)OC(=O)C[C@H](O)C[C@H](O)C[C@H](O)CC[C@@H](O)[C@H](O)C[C@](O)(C[C@@H]1O)O2
class 0
2. C[C@@H]1[C@H](O)[C@@H](C)/C=C/C=C/C=C/C=C/C=C/C=C/C=C/[C@H](O[C@H]2O[C@@H](C)[C@H](O)[C@@H](NCCCN)[C@H]2O)C[C@@H]2O[C@](O)(C[C@@H](O)[C@H](O)CC[C@@H](O)C[C@@H](O)C[C@@H](O)CC(=O)O[C@H]1C)C[C@H](O)[C@H]2C(=O)O
class 0
3. C[C@@H]1[C@H](O)[C@@H](C)/C=C/C=C/C=C/C=C/C=C/C=C/C=C/[C@H](O[C@H]2O[C@@H](C)[C@H](O)[C@@H](N(CCCN)CCCN)[C@H]2O)C[C@@H]2O[C@](O)(C[C@@H](O)[C@H](O)CC[C@@H](O)C[C@@H](O)C[C@@H](O)CC(=O)O[C@H]1C)C[C@H](O)[C@H]2C(=O)O
class 0
4. C[C@@H]1[C@H](O)[C@@H](C)/C=C/C=C/C=C/C=C/C=C/C=C/C=C/[C@H](O[C@@H]2O[C@H](C)[C@@H](O)[C@H](N)[C@@H]2O)C[C@@H]2O[C@](O)(C[C@@H](O)C[C@@H](O)[C@H](O)CC[C@@H](O)C[C@@H](O)CC(=O)O[C@H]1C)C[C@H](O)[C@H]2C(=O)O
class 0
5. C[C@@H]1[C@H](O)[C@@H](C)/C=C/C=C/C=C/C=C/C=C/C=C/C=C/[C@H](O[C@H]2O[C@@H](C)[C@H](O)[C@@H](NC[C@]3(O)OC[C@@H](O)[C@@H](O[C@@H]4O[C@H](CO)[C@H](O)[C@H](O)[C@H]4O)[C@@H]3O)[C@H]2O)C[C@@H]2O[C@](O)(C[C@@H](O)[C@H](O)CC[C@@H](O)C[C@@H](O)C[C@@H](O)CC(=O)O[C@H]1C)C[C@H](O)[C@H]2C(=O)O
class 1
6. C[C@@H]1[C@H](O)[C@@H](C)/C=C/C=C/C=C/C=C/C=C/C=C/C=C/[C@H](O[C@H]2O[C@@H](C)[C@H](O)[C@@H](N)[C@H]2O)C[C@@H]2O[C@](O)(C[C@@H](O)[C@H](O)CC[C@@H](O)C[C@@H](O)C[C@@H](O)CC(=O)O[C@H]1C)C[C@H](O)[C@H]2C(=O)NCCCN(C)C
class 1
7. C[C@@H]1[C@H](O)[C@@H](C)/C=C/C=C/C=C/C=C/C=C/C=C/C=C/[C@H](O[C@H]2O[C@@H](C)[C@H](O)[C@@H](N)[C@H]2O)C[C@@H]2O[C@](O)(C[C@@H](O)[C@H](O)CC[C@@H](O)C[C@@H](O)C[C@@H](O)CC(=O)O[C@H]1C)C[C@H](O)[C@H]2C(=O)NCCO
class 1
8. C[C@@H]1[C@H](O)[C@@H](C)/C=C/C=C/C=C/C=C/C=C/C=C/C=C/[C@H](O[C@H]2O[C@@H](C)[C@H](O)[C@@H](N)[C@H]2O)C[C@@H]2O[C@](O)(C[C@@H](O)[C@H](O)CC[C@@H](O)C[C@@H](O)C[C@@H](O)CC(=O)O[C@H]1C)C[C@H](O)[C@H]2C(=O)N1CCN(CCO)CC1
class 1

From: ChEMBL document CHEMBL1139324
